Below, each entry is listed alongside its reported switch fluorescence ratio.
# Test system: ATP;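 note: ATP exposure 15 min at 22 °C before imaging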
# Assay Explanation: switch fluorescence ratio, 500 uM ATP over buffer (Cy3 cluster intensity, sum of 5 cycles each) (fold (ratio)); higher = stronger signal-on switching upon ATP binding; sequences stand for … in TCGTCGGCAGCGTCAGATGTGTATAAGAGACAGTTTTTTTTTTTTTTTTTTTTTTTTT…TC
# Measurement Setup: aptamer strand: ATP DNA aptamer (quencher-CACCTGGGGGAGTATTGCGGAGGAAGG + anchor), 100 nM annealed; ATP concentration: 500 uM
Format: numeric value only, no unit, no commentary.

- Sequence Code: "TTTTAGAGTT"
  Measured: 0.982
- Sequence Code: "ATTTGAAGTA"
  Measured: 1.01
- Sequence Code: "CCATGTGAAG"
  Measured: 0.992

Note: attention shifts to another entry.
Query: I would be grateful if you could share the reported switch fluorescence ratio for AAGTCAGGAG .
Response: 1.05

Cited source for all entries: the supplement of paper PMC10126150
